Listing of entries alongside the reported IC50.
target: human CD73 (Homo sapiens); test: Inhibitor activity against CD73 in cell based assay (CD73 expressing CHO-K1 cells); settings: CHO-K1 cells expressing human CD73, 150 μM AMP, 4 hours of incubation; read-out: CHO-K1 CELL VARIANT: CD73 IC50
Sequence (P21589 27-549): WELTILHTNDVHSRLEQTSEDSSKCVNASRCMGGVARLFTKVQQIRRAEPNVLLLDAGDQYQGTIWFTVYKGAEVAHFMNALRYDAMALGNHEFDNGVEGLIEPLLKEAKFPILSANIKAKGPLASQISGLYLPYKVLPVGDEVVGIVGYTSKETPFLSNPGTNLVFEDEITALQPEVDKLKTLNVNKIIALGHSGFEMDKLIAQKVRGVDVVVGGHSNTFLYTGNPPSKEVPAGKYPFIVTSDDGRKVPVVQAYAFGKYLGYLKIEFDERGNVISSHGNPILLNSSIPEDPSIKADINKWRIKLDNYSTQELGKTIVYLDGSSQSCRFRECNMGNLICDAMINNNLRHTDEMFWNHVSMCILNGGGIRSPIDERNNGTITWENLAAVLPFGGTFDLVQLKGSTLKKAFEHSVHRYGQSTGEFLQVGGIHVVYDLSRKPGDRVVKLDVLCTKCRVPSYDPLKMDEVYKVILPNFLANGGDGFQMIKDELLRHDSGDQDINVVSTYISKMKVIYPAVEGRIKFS

Consider the reported IC50 for these molecules:
Cn1ncc(N2CC[C@@H](OC(=O)N[C@H]3CC[C@H](NS(=O)(=O)C4CCCC4)CC3)C2)c(Cl)c1=O
0.001 to 10 µM
O=C(N[C@H]1CC[C@H](NS(=O)(=O)c2cccc(F)c2)CC1)O[C@@H]1CCN(c2cn[nH]c(=O)c2Cl)C1
0.001 to 10 µM
O=C(NCC(F)(F)F)O[C@@H]1CCN(c2cn[nH]c(=O)c2Cl)C1
0.001 to 10 µM

Query block: Lookup: IC50 / human CD73 (Homo sapiens) / O=C(NC1CCN(C(=O)C(F)(F)F)CC1)N[C@@H]1CCN(c2cn[nH]c(=O)c2Cl)C1
Result block: 10 to 100 µM

Query block: Could you do the same for COC(=O)N[C@H]1CC[C@H](NC(=O)O[C@@H]2CCN(c3cn[nH]c(=O)c3Cl)C2)CC1 , please?
Result block: 0.001 to 10 µM

Query block: Could you do the same for O=C(NC1CCN(C2CCCC2)CC1)O[C@@H]1CCN(c2cn[nH]c(=O)c2Cl)C1 , please?
Result block: 0.001 to 10 µM

Query block: Could you do the same for CCC1(NC(=O)O[C@@H]2CCN(c3cn[nH]c(=O)c3Cl)C2)CCCC1 , please?
Result block: 0.001 to 10 µM

Query block: Could you do the same for O=C(NC1CCC1)N[C@@H]1CCN(c2cn[nH]c(=O)c2Cl)C1 , please?
Result block: 10 to 100 µM

Query block: Could you do the same for Cn1ncc(N2CC[C@@H](OC(=O)N[C@H]3CC[C@@H](C)CC3)C2)c(Cl)c1=O , please?
Result block: 0.001 to 10 µM

Query block: Could you do the same for O=C(NCc1ccccc1)O[C@@H]1CCN(c2cn[nH]c(=O)c2Cl)C1 , please?
Result block: 10 to 100 µM

Query block: Could you do the same for N#Cc1c(N2CC[C@@H](OC(=O)NC3CCCC3)C2)cnn(CCO)c1=O , please?
Result block: 0.001 to 10 µM

Query block: Could you do the same for O=C(N[C@H]1CC[C@H](NS(=O)(=O)c2ccsc2)CC1)O[C@@H]1CCN(c2cn[nH]c(=O)c2Cl)C1 , please?
Result block: 0.001 to 10 µM

Query block: Could you do the same for O=C(N[C@H]1CC[C@@H](Nc2ncccn2)CC1)O[C@@H]1CCN(c2cn[nH]c(=O)c2Cl)C1 , please?
Result block: 0.001 to 10 µM

Query block: Could you do the same for Cn1ncc(N2CC[C@@H](OC(=O)N[C@H]3CC[C@H](NS(=O)(=O)c4ccc(F)cc4F)CC3)C2)c(Cl)c1=O , please?
Result block: 0.001 to 10 µM

Query block: Could you do the same for O=C(N[C@@H]1CCC[C@H]1C(F)F)O[C@@H]1CCN(c2cn[nH]c(=O)c2Cl)C1 , please?
Result block: 0.001 to 10 µM

Query block: Could you do the same for O=C(NC1CCCC1)N[C@@H]1CCN(c2cn[nH]c(=O)c2Cl)C1 , please?
Result block: 0.001 to 10 µM

Query block: Could you do the same for Cc1cccc(F)c1C(=O)N[C@H]1CC[C@H](NC(=O)O[C@@H]2CCN(c3cn[nH]c(=O)c3Cl)C2)CC1 , please?
Result block: 0.001 to 10 µM

Query block: Could you do the same for O=C(NC1CCC(F)(F)CC1)O[C@@H]1CCN(c2cnn(CC(O)C(F)(F)F)c(=O)c2Cl)C1 (some centres unmarked) , please?
Result block: 0.001 to 10 µM

Query block: Could you do the same for Cc1ccccc1C(=O)N[C@H]1CC[C@H](NC(=O)O[C@@H]2CCN(c3cn[nH]c(=O)c3Cl)C2)CC1 , please?
Result block: 0.001 to 10 µM

Query block: Could you do the same for CC(C)(C)C1CCC(NC(=O)O[C@@H]2CCN(c3cn[nH]c(=O)c3Cl)C2)CC1 (some centres unmarked) , please?
Result block: 0.001 to 10 µM

Query block: Could you do the same for Cc1cccc(S(=O)(=O)N[C@H]2CC[C@H](NC(=O)O[C@@H]3CCN(c4cn[nH]c(=O)c4Cl)C3)CC2)c1 , please?
Result block: 0.001 to 10 µM

Query block: Could you do the same for CS(=O)(=O)N1CCC(NC(=O)O[C@@H]2CCN(c3cn[nH]c(=O)c3Cl)C2)CC1 , please?
Result block: 0.001 to 10 µM

Query block: Could you do the same for CCN(CC)CC(=O)N[C@H]1CC[C@H](NC(=O)O[C@@H]2CCN(c3cn[nH]c(=O)c3Cl)C2)CC1 , please?
Result block: 0.001 to 10 µM

Query block: Could you do the same for Cc1nc(C(=O)N2CCC(NC(=O)O[C@@H]3CCN(c4cn[nH]c(=O)c4Cl)C3)CC2)cs1 , please?
Result block: 0.001 to 10 µM

Query block: Could you do the same for Cc1c(N2CC[C@@H](NC(=O)OC(C)(C)C)C2)cn[nH]c1=O , please?
Result block: 10 to 100 µM

Query block: Could you do the same for CS(=O)(=O)N1CC[C@@H](NC(=O)O[C@@H]2CCN(c3cn[nH]c(=O)c3Cl)C2)C1 , please?
Result block: 0.001 to 10 µM

Query block: Could you do the same for CC1(NC(=O)O[C@@H]2CCN(c3cn[nH]c(=O)c3Cl)C2)CC(F)(F)C1 , please?
Result block: 0.001 to 10 µM

Query block: Could you do the same for O=C(N[C@H]1CC[C@H](NS(=O)(=O)c2ccc(F)cc2)CC1)O[C@@H]1CCN(c2cn[nH]c(=O)c2Cl)C1 , please?
Result block: 0.001 to 10 µM

Query block: Could you do the same for O=C(N[C@H]1CC[C@H](NS(=O)(=O)c2cc(F)ccc2F)CC1)O[C@@H]1CCN(c2cn[nH]c(=O)c2Cl)C1 , please?
Result block: 0.001 to 10 µM

Query block: Could you do the same for O=C(NC1CCN(C(=O)c2ccc(F)cc2)CC1)O[C@@H]1CCN(c2cn[nH]c(=O)c2Cl)C1 , please?
Result block: 0.001 to 10 µM

Query block: Could you do the same for O=C(NC1CCN(C(=O)c2ccc(Cl)nc2)CC1)O[C@@H]1CCN(c2cn[nH]c(=O)c2Cl)C1 , please?
Result block: 0.001 to 10 µM

Query block: Could you do the same for CS(=O)(=O)N1CC[C@H](NC(=O)O[C@@H]2CCN(c3cn[nH]c(=O)c3Cl)C2)C1 , please?
Result block: 10 to 100 µM

----------
biological target: human CD73 (Homo sapiens); construct: expressed in transfected cells; assay: Inhibitor activity against CD73 in cell based assay (CD73 expressing CHO-K1 cells); settings: CHO-K1 cells expressing human CD73, 150 μM AMP, 4 hours of incubation; read-out: CHO-K1 CELL VARIANT: CD73 IC50
Listing of entries alongside the reported IC50.

O=C(NC1CCN(C(=O)Nc2cccc(OC(F)F)c2)CC1)O[C@@H]1CCN(c2cn[nH]c(=O)c2Cl)C1 [P-0493]
0.001 to 10 µM
O=C(N[C@@H]1CCOC1)O[C@@H]1CCN(c2cn[nH]c(=O)c2Cl)C1 [P-0108]
0.001 to 10 µM
O=C(NC1CCCC(F)(F)C1)O[C@@H]1CCN(c2cn[nH]c(=O)c2Cl)C1 (stereo partly shown) [P-0424]
0.001 to 10 µM
Cc1csc(C2(NC(=O)O[C@@H]3CCN(c4cn[nH]c(=O)c4Cl)C3)CCCC2)n1 [P-0412]
0.001 to 10 µM

Query block: Lookup: IC50 / human CD73 (Homo sapiens) / O=C(Nc1ccc(F)cc1)N[C@H]1CC[C@@H](NC(=O)O[C@@H]2CCN(c3cn[nH]c(=O)c3Cl)C2)CC1 [P-0189]
Result block: 0.001 to 10 µM

Query block: Could you do the same for O=C(NC1CCN(C(=O)C2CCCO2)CC1)O[C@@H]1CCN(c2cn[nH]c(=O)c2Cl)C1 (stereo partly shown) [P-0401] , please?
Result block: 0.001 to 10 µM

Query block: Could you do the same for Cn1ncc(N2CC[C@@H](OC(=O)N[C@H]3CC[C@H](NS(=O)(=O)C4CC4)CC3)C2)c(Cl)c1=O [P-0227] , please?
Result block: 0.001 to 10 µM

----------
Reported IC50, Human CD73 (amino acid residues 27-549) (Homo sapiens, UniProt P21589).

Query block: Which measured IC50 value corresponds to O=C(N[C@@H]1CCN(c2cn[nH]c(=O)c2Cl)C1)OCc1ccccc1 ?
Result block: 10 to 100 µM

Query block: Could you do the same for NC(=O)[C@H]1CC[C@@H](NC(=O)O[C@@H]2CCN(c3cn[nH]c(=O)c3Cl)C2)CC1 , please?
Result block: 0.001 to 10 µM

Query block: Could you do the same for Cn1ncc(N2CC[C@@H](OC(=O)N[C@H]3CC[C@H](NS(=O)(=O)c4c(F)cccc4F)CC3)C2)c(Cl)c1=O , please?
Result block: 0.001 to 10 µM

Query block: Could you do the same for Cc1ccc(S(=O)(=O)N[C@H]2CC[C@H](NC(=O)O[C@@H]3CCN(c4cn[nH]c(=O)c4Cl)C3)CC2)cc1 , please?
Result block: 0.001 to 10 µM

Data provenance is patent US12509444B2.
